Provide the reported melting point of each item.

>>> result("Cc1ccc(C(=O)NC2=Nc3ccccc3C3=NCCN23)c(Cl)n1.Cl [Example 2-156]")
"287 °C (dec.)"
>>> result("Cc1ccc2c(c1)C1=NCCN1C(/C=C(\\O)c1cccnc1)=N2 [Example 1-131]")
"212 °C"
>>> result("COc1cc2c(cc1OC)C1=NCCN1C(/C=C(\\O)c1ccccc1)=N2 [Example 1-185]")
"249 to 252 °C"
>>> result("Cn1c(C(=O)NC2=Nc3ccccc3C3=NCCN23)cc2ccccc21 [Example 2-314]")
"259 to 260 °C"
>>> result("Cc1cccc2c1N=C(NC(=O)c1ccc3[nH]cnc3c1)N1CCN=C21 [Example 2-109]")
"> 290 °C"

For each of the items listed, what is its melting point?
1. O=C(NC1=Nc2ccccc2C2=NCCN12)c1ccncc1 [Example 2-278]
2. Cl.O/C(=C\C1=Nc2ccccc2C2=NCCN12)c1ccco1 [Example 1-144]
3. O=C(NC1=Nc2ccccc2C2=NCCN12)c1cccnc1 [Example 2-1]
4. O=C(NC1=Nc2ccccc2C2=NCCN12)c1ccc([N+](=O)[O-])s1 [Example 2-303]
5. O=C(NCCc1ccc2c(n1)N=C(/C=C(\O)c1cccnc1)N1CCN=C21)N1CCCCC1 [Example 1-205]
6. O/C(=C\C1=Nc2ccccc2C2=NCCN12)c1ccno1 [Example 1-152]
7. Cl.O/C(=C\C1=Nc2ccccc2C2=NCCN12)c1ccccn1 [Example 1-174]

Marked response:
["224 to 225 °C", "> 300 °C", "238 to 239 °C (dec.)", "286 to 287 °C", "246 °C", "148 °C", "235 to 240 °C"]

For each of the items listed, what is its melting point?
1. COc1ccc2c(c1)N=C(NC(=O)c1ccc3[nH]cnc3c1)N1CCN=C21 [Example 2-25]
2. Cc1ccc2c(c1OCCN1CCOCC1)N=C(/C=C(\O)c1cccnc1)N1CCN=C21 [Example 1-39]

Marked response:
1. 186 °C
2. 217 °C

###

subjectOfTest: Recombinant human PI3Kγ (full length human PI3K p110γ) (Homo sapiens, UniProt P48736)
Construct: full length human PI3K p110γ fused with a His6-tag at the C-terminus; His6 (C); purchased ALEXIS BIOCHEMICALS #201-055-C010; host or cells: S. frugiperda 9 insect cells
Sequence (P48736 whole entry, the tested form may be a part): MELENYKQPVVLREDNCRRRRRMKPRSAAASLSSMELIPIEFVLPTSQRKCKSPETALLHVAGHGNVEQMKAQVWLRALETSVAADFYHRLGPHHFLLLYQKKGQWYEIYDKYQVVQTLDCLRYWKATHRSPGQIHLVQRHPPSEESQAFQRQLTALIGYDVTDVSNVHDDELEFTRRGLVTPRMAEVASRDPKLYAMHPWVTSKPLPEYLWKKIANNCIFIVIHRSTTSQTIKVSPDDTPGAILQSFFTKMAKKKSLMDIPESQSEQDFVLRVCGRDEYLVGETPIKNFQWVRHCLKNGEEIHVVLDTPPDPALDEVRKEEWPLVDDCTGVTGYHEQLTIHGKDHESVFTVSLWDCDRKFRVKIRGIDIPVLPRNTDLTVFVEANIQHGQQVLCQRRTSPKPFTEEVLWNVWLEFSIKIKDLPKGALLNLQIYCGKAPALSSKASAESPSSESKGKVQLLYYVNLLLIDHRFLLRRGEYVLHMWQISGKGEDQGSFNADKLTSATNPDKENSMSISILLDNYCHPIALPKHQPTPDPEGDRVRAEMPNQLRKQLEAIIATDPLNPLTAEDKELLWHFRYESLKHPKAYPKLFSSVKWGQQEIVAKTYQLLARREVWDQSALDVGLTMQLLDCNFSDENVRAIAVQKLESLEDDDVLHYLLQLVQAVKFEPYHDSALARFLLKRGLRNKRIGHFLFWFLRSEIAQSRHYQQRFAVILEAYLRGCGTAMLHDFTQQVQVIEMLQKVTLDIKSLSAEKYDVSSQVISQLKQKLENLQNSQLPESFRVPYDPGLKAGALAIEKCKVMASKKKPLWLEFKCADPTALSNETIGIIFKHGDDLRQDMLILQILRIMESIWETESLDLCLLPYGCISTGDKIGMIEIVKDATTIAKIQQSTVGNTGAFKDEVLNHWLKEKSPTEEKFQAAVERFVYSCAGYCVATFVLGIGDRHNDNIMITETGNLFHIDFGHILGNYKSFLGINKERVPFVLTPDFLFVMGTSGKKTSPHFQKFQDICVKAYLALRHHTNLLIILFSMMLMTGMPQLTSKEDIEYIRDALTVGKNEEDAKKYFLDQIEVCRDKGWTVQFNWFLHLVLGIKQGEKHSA
testDetails: Kinase assay of PI3Kγ (solid-phase lipid kinase assay)
Type: biochemical
cond: in vitro PI3K-γ inhibitory activity, class symbols; read-out: in vitro PI3K-gamma
measuredMetric: IC50

>>> result("CNc1ccc(C(=O)NC2=Nc3ccccc3C3=NCCN23)cn1")
"100 to 500 nM"
>>> result("COc1ccc2c(c1)N=C(NC(=O)c1ccc(NC(C)=O)nc1)N1CCN=C21.Cl")
"100 to 500 nM"

Please find the next compound below.
Exam item: # input compound: `COc1cccc2c1N=C(NC(=O)c1ccc3[nH]cnc3c1)N1CCN=C21` ; wanted: its IC50
Marked response: < 100 nM

###

subjectOfTest: Recombinant human PI3Kγ (full length human PI3K p110γ) (Homo sapiens)
Construct: full length human PI3K p110γ fused with a His6-tag at the C-terminus; His6 (C); purchased ALEXIS BIOCHEMICALS #201-055-C010; host or cells: S. frugiperda 9 insect cells
testDetails: Kinase assay of PI3Kγ (solid-phase lipid kinase assay)
Type: biochemical
cond: in vitro PI3K-γ inhibitory activity, class symbols; read-out: in vitro PI3K-gamma
measuredMetric: IC50

>>> result("Cl.O=C(NC1=Nc2c(Cl)cccc2C2=NCCN12)c1cccnc1 [Example 2-103]")
"0.1 to 0.5 µM"
>>> result("Cl.O=C(NC1=Nc2ccccc2C2=NCCN12)c1nccs1 [Example 2-188]")
"0.1 to 0.5 µM"
>>> result("COc1cc(OC)c2c(c1)C1=NCCN1C(NC(=O)c1cccnc1)=N2 [Example 2-68]")
"< 0.1 µM"
>>> result("Cl.O=C(O)COc1ccc2c(c1)N=C(NC(=O)c1cccnc1)N1CCN=C21 [Example 2-203]")
"0.1 to 0.5 µM"
>>> result("O=C(NC1=Nc2cc(OCCOCCO)ccc2C2=NCCN12)c1cccnc1 [Example 2-201]")
"0.1 to 0.5 µM"

For each of the items listed, what is its IC50?
1. Nc1cccc(C(=O)NC2=Nc3ccccc3C3=NCCN23)c1.O=C(O)C(F)(F)F [Example 2-162]
2. COc1ccc2c(c1)N=C(NC(=O)c1ccc(N)nc1)N1CCN=C21 [Example 2-23]
3. Cc1nc(C)c(C(=O)NC2=Nc3ccccc3C3=NCCN23)s1.Cl [Example 2-190]
4. Cc1ccc2c(c1)N=C(NC(=O)c1cccnc1)N1CCN=C21 [Example 2-27]
5. Cl.O=C(NC1=Nc2ccc(Cl)cc2C2=NCCN12)c1ccc2[nH]cnc2c1 [Example 2-86]

Marked response:
1. 0.1 to 0.5 µM
2. < 0.1 µM
3. < 0.1 µM
4. < 0.1 µM
5. 0.1 to 0.5 µM

For each of the items listed, what is its IC50?
1. COc1ccc2c(c1OC)N=C(NC(=O)c1cnc3[nH]cnc3c1)N1CCN=C21 [Example 2-51]
2. Cc1nocc1C(=O)NC1=Nc2ccccc2C2=NCCN12.Cl [Example 2-186]

Marked response:
1. < 0.1 µM
2. 0.1 to 0.5 µM

For each of the items listed, what is its IC50?
1. COc1cc2c(cc1Br)C1=NCCN1C(NC(=O)c1cccnc1)=N2.Cl [Example 2-67]
2. COc1cc2c(c(OC)c1C)N=C(NC(=O)c1ccc(NC(C)=O)nc1)N1CCN=C21.Cl [Example 2-80]

Marked response:
1: 0.1 to 0.5 µM; 2: < 0.1 µM
